The measurements presented in this section are drawn from ChEMBL document CHEMBL1201862.

# Tested on: K562
# TEST_PROTOCOL: NCI tumour cell line growth inhibition, 48 h
Calls of active or inactive are those of the source. Rule as the data show it: active = GI50 up to about 1.1 µM and inactive = higher.
Your answer must be one of the following: yes (active), no (inactive)

O=c1cc(-c2ccccc2)c2ccc(O)c(CN(CCCl)CCCl)c2o1 | no
CCN(CC)CCNC(=O)c1cc2cc(NC(=O)c3cc4cc([N+](=O)[O-])ccc4[nH]3)ccc2[nH]1 | no
Oc1c2cc(Cl)cc1COCc1cc(Cl)cc(c1O)COCc1cc(Cl)cc(c1O)COC2 | no

Q) Look up the recorded call for c1ccc(C2CC(NC3CCCCC3)=Nc3ccccc3N2)cc1 (centres undefined) in this test.
A) no

Q) Look up the recorded call for O=C1C=C(c2c(O)ccc3ccccc23)c2cc(O)ccc2C1=O in this test.
A) no

Q) Look up the recorded call for O=C(O)C12C=CC(C1)c1ccccc12 (centres undefined) in this test.
A) no

====

# Test system: SK-OV-3
# TEST_PROTOCOL: NCI tumour cell line growth inhibition, 48 h
Active and inactive are the calls of the source. Rule as the data show it: active = GI50 up to about 1.1 µM and inactive = higher.
Your answer must be one of the following: active, inactive

CN(C)CCCN1CCC2(CCC(C(C)(C)C)CC2)CC1 | inactive
OCCCCn1cc(Cn2ncc3c(O)ncnc32)nn1 | inactive
NC(=O)Cc1nc2c(O)ncnc2n1C1OC(CO)C(O)C1O (stereo not drawn) | inactive

Q) Look up the recorded call for O=C(/C=C\c1ccccc1)N1CCc2ccccc2C1 in this test.
A) inactive

Q) Look up the recorded call for C=C(C)[C@@]1(O)CCCC[C@@H]1CC(Sc1ccccc1)Sc1ccccc1 in this test.
A) inactive

Q) Look up the recorded call for CCOC(CCNCC(OCC)OCC)OCC in this test.
A) inactive

Q) Look up the recorded call for NC(=O)C(=CNC(N)=S)C(N)=O in this test.
A) inactive

Q) Look up the recorded call for CCN(CC)CCCNc1nccc2c(C)c3c(cc12)c1cnccc1n3C in this test.
A) active

====

Each entry below lists one item and its recorded GI50 value.
# System: SN12C
# TEST_PROTOCOL: NCI tumour cell line growth inhibition, 48 h
Active and inactive are the calls of the source. No stated cut-off is given here; in the data, active = GI50 up to about 1.1 µM and inactive = higher.

# count of solved cases: 3
Cc1occc1/C(S)=N\c1ccc(Cl)c(C(=O)OCC2CC2)c1 | 34.9 µM (inactive)
CN1C(=O)CC(c2cccc(C3CC(=O)N(C)C3=O)n2)C1=O (centres undefined) | > 100 µM (inactive)
O=CN1CCN(C(=O)c2ccc(Cl)cc2Cl)C1=S | 43 µM (inactive)

Q) Lab note: need GI50 with SN12C for entry c1ccc2c(c1)-c1nc3ccccc3cc1C2N1CCOCC1 (centres undefined) , please look it up.
A) > 100 µM (inactive)

Q) Lab note: need GI50 with SN12C for entry CCCCC(C)C(OC(=O)CC(CC(=O)O)C(=O)O)C(CC(C)CC(O)CCCCC(O)CC(O)C(C)N)OC(=O)CC(CC(=O)O)C(=O)O (centres undefined) , please look it up.
A) > 100 µM (inactive)

Q) Lab note: need GI50 with SN12C for entry Cc1nc2c(n1CC(C)C)C(=O)c1ccccc1C2=O , please look it up.
A) 37.1 µM (inactive)

Q) Lab note: need GI50 with SN12C for entry Nc1c2c(nc3ccccc13)-c1ccccc1CCC2 , please look it up.
A) 16.3 µM (inactive)

Q) Lab note: need GI50 with SN12C for entry FC(F)(F)c1ccc2nc(Nc3ccc(Cl)c(Cl)c3)c(-c3ccccc3)nc2c1 , please look it up.
A) 75.2 µM (inactive)

Q) Lab note: need GI50 with SN12C for entry COc1cc(/C=C\c2ccc(OC(C)=O)cc2)cc(OC)c1OC , please look it up.
A) 4.22 µM (inactive)

Q) Lab note: need GI50 with SN12C for entry COc1cc2c[n+](C)c3c4ccccc4ccc3c2cc1OC.COc1cc2cnc3c4ccccc4ccc3c2cc1OC , please look it up.
A) 2.84 µM (inactive)

Q) Lab note: need GI50 with SN12C for entry CS/C(=N\C(=S)Nc1ccccc1)Nc1ccccc1 , please look it up.
A) 18.3 µM (inactive)

Q) Lab note: need GI50 with SN12C for entry C=C1C(=O)C23C(O)CC4C(C)(C)CCC(O)C4(C)C2CC(OC(C)=O)C1[C@H]3O (some centres undefined) , please look it up.
A) 3.15 µM (inactive)

Q) Lab note: need GI50 with SN12C for entry O=C1CSC(c2cccc(Oc3ccccc3)c2)N1c1cc(Cl)ccc1Cl (centres undefined) , please look it up.
A) 19.5 µM (inactive)

Q) Lab note: need GI50 with SN12C for entry COc1ccc(/C=N/c2c(O)ccc3ccccc23)cc1OC , please look it up.
A) > 100 µM (inactive)
